Please provide measured In vitro activity (%) compared with native peptide: vs Glucagon for the entries that follow.
targetOrTestSystem: human GCG receptor (human, UniProt P47871 26-477)
Sequence (P47871 26-477): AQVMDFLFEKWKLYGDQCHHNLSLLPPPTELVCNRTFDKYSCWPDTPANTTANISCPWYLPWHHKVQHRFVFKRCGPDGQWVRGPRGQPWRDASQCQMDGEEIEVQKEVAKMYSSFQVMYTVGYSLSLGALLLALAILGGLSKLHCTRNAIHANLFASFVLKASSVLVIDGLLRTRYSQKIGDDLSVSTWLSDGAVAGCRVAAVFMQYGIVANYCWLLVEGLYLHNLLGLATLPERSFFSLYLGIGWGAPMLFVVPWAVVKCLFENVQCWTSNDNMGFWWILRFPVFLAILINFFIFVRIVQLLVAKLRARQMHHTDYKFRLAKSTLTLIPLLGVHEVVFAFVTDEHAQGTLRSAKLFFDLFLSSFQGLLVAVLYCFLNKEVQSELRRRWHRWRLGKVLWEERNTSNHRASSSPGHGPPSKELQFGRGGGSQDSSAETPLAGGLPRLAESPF
method: cell-based or functional assay
Positions of bridges follow the written chain, without caps; N, C: chain ends. Non-standard residues stand in square brackets, D forms with d. No end group written: not given here. *: point of attachment. Acetyl(2-(4-imidazolyl)) = O=C(Cc1c[nH]cn1)*; Aib = CC(C)(N)C(=O)O
Just the number in %, nothing appended.

Request: Return reported In vitro activity (%) compared with native peptide: vs Glucagon. Input binder: {Acetyl(2-(4-imidazolyl))}-[Aib]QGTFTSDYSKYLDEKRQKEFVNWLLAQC (bridge 15-19; not fully specified) [triple agonist of SEQ ID NO: 86]
Result: 0.4

Request: Report In vitro activity (%) compared with native peptide: vs Glucagon for Y[Aib]QGTFTSDYSKYLDECAAKEFVQWLLDHHPSSGQPPPS (bridge 16-20; not fully specified) [triple agonist of SEQ ID NO: 64]
Result: 60.1

Request: Give In vitro activity (%) compared with native peptide: vs Glucagon for the following binder: H[Aib]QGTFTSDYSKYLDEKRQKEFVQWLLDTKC (bridge 16-20; not fully specified) [triple agonist of SEQ ID NO: 78]
Result: 14

Request: Read the entry H[Aib]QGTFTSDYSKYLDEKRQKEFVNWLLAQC (bridge 16-20) [triple agonist of SEQ ID NO: 56] and write its reported In vitro activity (%) compared with native peptide: vs Glucagon.
Result: 4.9

Request: For the binder H[Aib]QGTFTSDVSKYLDGQAAQEFVAWLLKGC (not fully specified) [triple agonist of SEQ ID NO: 8] , give its reported In vitro activity (%) compared with native peptide: vs Glucagon.
Result: 0.1

Request: Specify measured In vitro activity (%) compared with native peptide: vs Glucagon for Y[Aib]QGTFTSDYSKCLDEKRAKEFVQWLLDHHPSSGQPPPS (bridge 16-20; not fully specified) [triple agonist of SEQ ID NO: 22] .
Result: 140

Request: For H[Aib]QGTFTSDYSKYLDEKACKEFVQWLLAQ (bridge 16-20; not fully specified) [triple agonist of SEQ ID NO: 31] , write its In vitro activity (%) compared with native peptide: vs Glucagon.
Result: 2.2

Request: Consider the binder H[Aib]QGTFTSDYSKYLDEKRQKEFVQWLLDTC (bridge 16-20; not fully specified) [triple agonist of SEQ ID NO: 52] and give its recorded In vitro activity (%) compared with native peptide: vs Glucagon.
Result: 7.5

Request: Look up and state reported In vitro activity (%) compared with native peptide: vs Glucagon for {Acetyl(2-(4-imidazolyl))}-[Aib]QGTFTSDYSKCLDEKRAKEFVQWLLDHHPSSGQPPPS (bridge 15-19; not fully specified) [triple agonist of SEQ ID NO: 74]
Result: 0.9

Request: For {Acetyl(2-(4-imidazolyl))}-[Aib]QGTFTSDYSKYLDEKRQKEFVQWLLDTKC (bridge 15-19; not fully specified) [triple agonist of SEQ ID NO: 89] , write its In vitro activity (%) compared with native peptide: vs Glucagon.
Result: 0.7

Request: Specify reported In vitro activity (%) compared with native peptide: vs Glucagon for the binder shown: Y[Aib]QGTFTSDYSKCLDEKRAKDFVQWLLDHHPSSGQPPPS (bridge 16-20; not fully specified) [triple agonist of SEQ ID NO: 70]
Result: 71.3

Request: In one line, give reported In vitro activity (%) compared with native peptide: vs Glucagon of the entry Y[Aib]QGTFTSDYSKYLDERACKDFVQWLLDHHPSSGQPPPS (bridge 16-20; not fully specified) [triple agonist of SEQ ID NO: 71] .
Result: 12.7
